Data origin: the supplement of paper PMC10567573

B1: ZBTB22 (parent)
chain: HTGLKPYECGVCAKKFMWRDSFMR

Variants of: B1
Assay: protein stability index of a GFP-peptide fusion (GPS, HEK-293T) (PSI 1-6); higher = more stable;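 also: lentivirally expressed fusions sorted by FACS into six bins by GFP to DsRed ratio, PSI derived from sequencing read proportions per bin multiplied by bin number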
Conditions: c terminus: a fixed tail appended
Catalogue of variants with associated protein stability index
A bare number is all that is needed in reply.

Here is how some variants turned out for protein stability index.
> print(dat)
                     sequence.code  meas.value
1   HTGHKPYECGVCAKKFMWRDSFMR [L4H]        2.07
2  HTGLKPYECGVGAKKFMWRDSFMR [C12G]        3.24
3  HTGLKPYECGVCAKKFMWRDSFMN [R24N]        3.03
4  HTGLKPYECGPCAKKFMWRDSFMR [V11P]        3.87
5  HTGLKPYECGVCAKKFMWRHSFMR [D20H]        2.65
6   HTQLKPYECGVCAKKFMWRDSFMR [G3Q]        1.52
7   HTGLKPYTCGVCAKKFMWRDSFMR [E8T]        2.61
8  HTGLKPYECKVCAKKFMWRDSFMR [G10K]        2.19

INPUT: Please look up its protein stability index: HTGLKPYECGVCAKKFMWRDGFMR [S21G]
OUTPUT: 2.9

INPUT: Quick one: HTGLKPYECGVCFKKFMWRDSFMR [A13F]
OUTPUT: 3.02

INPUT: Same question for HTGLKPYECGVCAKKFMNRDSFMR [W18N] please.
OUTPUT: 1.61

INPUT: Okay, and HTGLKPYECGVCAKKFMWRDSSMR [F22S] ?
OUTPUT: 1.66

INPUT: Let us now turn to HTGLKPDECGVCAKKFMWRDSFMR [Y7D]
OUTPUT: 1.82

INPUT: How about this variant: FTGLKPYECGVCAKKFMWRDSFMR [H1F]
OUTPUT: 1.76

INPUT: Param item: HTGLKPYEQGVCAKKFMWRDSFMR [C9Q]
OUTPUT: 1.65

INPUT: Now give it for HTGLKPYECGVCAKKCMWRDSFMR [F16C] too.
OUTPUT: 2.57

INPUT: Next up: HTGLKPYECGVCHKKFMWRDSFMR [A13H]
OUTPUT: 2.56

INPUT: // repeat for HTGLKPLECGVCAKKFMWRDSFMR [Y7L] and report
OUTPUT: 2.73

INPUT: Note, next up: HTGLKPYECGVCAKKFMWPDSFMR [R19P]
OUTPUT: 4.1
